- test_target: DLL3 (Homo sapiens, UniProt Q9NYJ7)
- experiment_notes: SPR KD, biotinylated human DLL3 on streptavidin chip (Table 8)
- Design: biotin (biotinylated)
- conditions: biotinylated human DLL3 on streptavidin sensor chip, 25° C., 1:1 binding model; read-out: SPR KD
- Source text: Biotinylated target ligand human DLL3 was immobilized on a streptavidin sensor chip. A reference surface was set up for nonspecific binding and refractive index changes. […] Sensorgram curves were fitted with 1:1 binding model, and affinity and kinetic parameters were obtained using Biacore Insight evaluation 4.0. software.
pKd: −log10 of the molar value. Where a SMILES comes first, the peptide text is derived from it. Bridges are numbered along the chain shown (N, C = ends). [ ]: non-standard residue; d: D form. The star is where a group is joined. DOTA = O=C(O)CN1CCN(CC(=O)O)CCN(CC(=O)*)CCN(CC(=O)O)CC1; Trp(7-aza) = N[C@@H](Cc1c[nH]c2ncccc12)C(=O)O; Phe(4-F) = N[C@@H](Cc1ccc(F)cc1)C(=O)O; 2Nal = N[C@@H](Cc1ccc2ccccc2c1)C(=O)O; Gly(4-THP) = N[C@H](C(=O)O)C1CCOCC1; Cha = N[C@@H](CC1CCCCC1)C(=O)O; Dab = NCC[C@H](N)C(=O)O
property_name: pKd

CC[C@H](C)[C@H](NC(=O)[C@@H](NC(=O)[C@H](Cc1c[nH]c2ccccc12)NC(C)=O)[C@@H](C)O)C(=O)N[C@H]1CCC(=O)NCC[C@@H](C(=O)N[C@@H](Cc2c[nH]c3ccccc23)C(=O)N2CCC[C@H]2C(N)=O)NC(=O)[C@H](CC(=O)O)NC(=O)[C@H](Cc2c[nH]cn2)NC(=O)[C@H](Cc2c[nH]c3ccccc23)NC(=O)[C@H](CC(N)=O)NC(=O)[C@H](CC(N)=O)NC1=O [compound 71] (Ac-WTIENNWHD[Dab]WP-NH2; lactam 4-10)	6.52 to 7.00
CC(=O)N[C@@H](Cc1c[nH]c2ccccc12)C(=O)N[C@H](C(=O)N[C@@H](CC1CCCCC1)C(=O)N[C@H]1CSSC[C@@H](C(=O)N[C@@H](Cc2c[nH]c3ccccc23)C(=O)N2CCC[C@H]2C(N)=O)NC(=O)[C@H](CC(=O)O)NC(=O)[C@H](Cc2cnc[nH]2)NC(=O)[C@H](Cc2c[nH]c3ccccc23)NC(=O)[C@H](CC(N)=O)NC(=O)[C@H](CC(N)=O)NC1=O)[C@@H](C)O [compound 340] (Ac-WT[Cha]CNNWHDCWP-NH2; disulfide 4-10)	8.00 to 9.00
CC(=O)N[C@@H](Cc1c[nH]c2ccccc12)C(=O)N[C@H](C(=O)N[C@H](C(=O)N[C@H]1CSSC[C@@H](C(=O)N[C@@H](Cc2c[nH]c3ccccc23)C(=O)N2CCC[C@H]2C(N)=O)NC(=O)[C@H](CC(=O)O)NC(=O)[C@H](CCCCNC(=O)CN2CCN(CC(=O)O)CCN(CC(=O)O)CCN(CC(=O)O)CC2)NC(=O)[C@H](Cc2ccc3ccccc3c2)NC(=O)[C@H](CC(N)=O)NC(=O)[C@H](CC(N)=O)NC1=O)C1CCOCC1)[C@@H](C)O [compound 317] (Ac-WT[Gly(4-THP)]CNN[2Nal]K(DOTA)DCWP-NH2; disulfide 4-10)	> 9.00
CC[C@H](C)[C@H](NC(=O)[C@@H](NC(=O)[C@H](Cc1c[nH]c2ccccc12)NC(C)=O)[C@@H](C)O)C(=O)N[C@H]1CSSC[C@@H](C(=O)N[C@@H](Cc2ccc(F)cc2)C(=O)N2CCC[C@H]2C(N)=O)NC(=O)[C@H](CC(=O)O)NC(=O)[C@H](Cc2c[nH]cn2)NC(=O)[C@H](Cc2c[nH]c3ccccc23)NC(=O)[C@H](CC(N)=O)NC(=O)[C@H](CC(N)=O)NC1=O [compound 52] (Ac-WTICNNWHDC[Phe(4-F)]P-NH2; disulfide 4-10)	7.00 to 8.00
CC[C@H](C)[C@H](NC(=O)[C@@H](NC(=O)[C@H](Cc1c[nH]c2ccccc12)NC(C)=O)[C@@H](C)O)C(=O)N[C@H]1CSSC[C@@H](C(=O)N[C@@H](Cc2c[nH]c3ccccc23)C(=O)N2CCC[C@H]2C(N)=O)NC(=O)[C@H](CC(=O)O)NC(=O)[C@H](Cc2c[nH]cn2)NC(=O)[C@H](Cc2c[nH]c3ncccc23)NC(=O)[C@H](CC(N)=O)NC(=O)[C@H](CC(N)=O)NC1=O [compound 33] (Ac-WTICNN[Trp(7-aza)]HDCWP-NH2; disulfide 4-10)	7.00 to 8.00
